Item-by-item account of pIC50
tested on: KB; assay: Cytotoxicity activity against human KB cells assessed as reduction in cell viability after 72 hrs by MTT assay; format: functional, cell-based
pIC50: −log10 of the molar value.
value type: pIC50

molecule | value type | observed result
C=C(C)[C@H]1C[C@@H](C[C@]23C[C@@H](/C=C/C(C)C)C(C)(C)[C@](CC=C(C)C)(C(=O)C(C(=O)c4ccccc4)=C2O)C3=O)C1(C)C | pIC50 | 5.00
C=C(C)[C@H]1C[C@@H](C[C@@]23C[C@@H](/C=C/C(C)C)C(C)(C)[C@@](CC=C(C)C)(C2=O)c2oc4cc(O)c(O)cc4c(=O)c2C3=O)C1(C)C | pIC50 | 5.28
COc1cccc2c1C(=O)c1c(O)c3c(c(O)c1C2=O)C[C@@](O)(C(=O)CO)C[C@@H]3O[C@H]1C[C@H](N)[C@H](O)[C@H](C)O1 [DOXORUBICIN] | pIC50 | 7.70
C=C(C)[C@H]1C[C@@H](C[C@]23C[C@@H](/C=C/C(C)C)C(C)(C)[C@](CC=C(C)C)(C(=O)C(C(=O)c4ccc(O)c(O)c4)=C2O)C3=O)C1(C)C | pIC50 | 5.15
CC(C)=CC[C@@H]1C[C@]23C[C@@H](CC=C(C)C)C(C)(C)[C@](CC=C(C)C)(C(=O)C(C(=O)c4ccc(O)c(O)c4)=C2OC1(C)C)C3=O | pIC50 | 5.28

----------
tested on: HeLa S3; assay: Cytotoxicity activity against human HeLa S3 cells assessed as reduction in cell viability after 72 hrs by MTT assay; assay type: functional, cell-based; settings: HeLa S3, 72 h

molecule | unit of measure | qualifier operator | IC50
C=C(C)[C@H]1C[C@@H](C[C@@]23C[C@@H](/C=C/C(C)C)C(C)(C)[C@@](CC=C(C)C)(C2=O)c2oc4cc(O)c(O)cc4c(=O)c2C3=O)C1(C)C | µM | = | 6.2
C=C(C)[C@H]1C[C@@H](C[C@]23C[C@@H](/C=C/C(C)C)C(C)(C)[C@](CC=C(C)C)(C(=O)C(C(=O)c4ccc(O)c(O)c4)=C2O)C3=O)C1(C)C | µM | = | 7.2
C=C(C)[C@H]1C[C@@H](C[C@]23C[C@@H](/C=C/C(C)C)C(C)(C)[C@](CC=C(C)C)(C(=O)C(C(=O)c4ccccc4)=C2O)C3=O)C1(C)C | µM | > | 10
